Values from the supplement of paper PMC6755084

B1: F1*; the commonest letter at each place (parent)
chain: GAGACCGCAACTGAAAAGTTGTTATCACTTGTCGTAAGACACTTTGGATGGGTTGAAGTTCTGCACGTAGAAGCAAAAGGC

# Variants of: B1
# run_description: fraction ligated after 30 min (ligated reads / total reads); higher = more ligase activity
# test_parameters: with F1*sub RNA substrate (template-directed ligation), 42 °C
Catalogue of fraction ligated values
Reply: number alone, nothing else.

[[record]]
sequence_data = "GAGACCGCAACTGAAAAGTTGTTATCACTTGTCGTAACACGCTTTGGATGGGTTGAAGTTCTGCACGTAGAAGCAAAAGGC"
measured_number = 0.793

[[record]]
sequence_data = "GAGACCGCAACTGAAAAGTTGTTATCACTTGTCGTAAGACACTTCGGAAGGGTTGAAGTTCTGCACGTAGAAGCAAAAGGC"
measured_number = 0.0409

[[record]]
sequence_data = "GAGACCGCAACTGAAAAGTTGTTATCACTTGTCGTCAGACACTTTGGATGGGTTGAGGTTCTGCACGTAGAAGCAAAAGGC"
measured_number = 0.816

[[record]]
sequence_data = "GAGACCGCAACTGAAAAGTTGTTATCACTTGTTGTAAGACACTTTGGATGGGTTAAAGTTCTGCACGTAGAAGCAAAAGGC"
measured_number = 0.859

[[record]]
sequence_data = "GAGACCGCAACTGAAAAGTTGTTGTCACTTGTCGTAAGACACTTTGGATGGGTTGTAGTTCTGCACGTAGAAGCAAAAGGC"
measured_number = 0.0729


Find the recorded fraction ligated belonging to `GAGACCGCAACTGAAAAGTTGTTATCACTTGTCGTAAGACACTTCGGATGGGTTGCAGTTCTGCACGTAGAAGCAAAAGGC` and report it.
0.747

Find the recorded fraction ligated belonging to `GAGACCGCAACTGAAAAGTTGTTATCACTTGTCGTAAGAGACTTTGGATGGGTTTAAGTTCTGCACGTAGAAGCAAAAGGC` and report it.
0.794

Find the recorded fraction ligated belonging to `GAGACCGCAACTGAAAAGTTGTTATCACTTGTTGTAAGACACGTTGGATGGGTTGAAGTTCTGCACGTAGAAGCAAAAGGC` and report it.
0.78
